target: Purified recombinant human PCSK9 (His-tagged, BPS Biosciences) (human) (UniProt Q8NBP7)
Sequence (Q8NBP7 31-692 limits assumed): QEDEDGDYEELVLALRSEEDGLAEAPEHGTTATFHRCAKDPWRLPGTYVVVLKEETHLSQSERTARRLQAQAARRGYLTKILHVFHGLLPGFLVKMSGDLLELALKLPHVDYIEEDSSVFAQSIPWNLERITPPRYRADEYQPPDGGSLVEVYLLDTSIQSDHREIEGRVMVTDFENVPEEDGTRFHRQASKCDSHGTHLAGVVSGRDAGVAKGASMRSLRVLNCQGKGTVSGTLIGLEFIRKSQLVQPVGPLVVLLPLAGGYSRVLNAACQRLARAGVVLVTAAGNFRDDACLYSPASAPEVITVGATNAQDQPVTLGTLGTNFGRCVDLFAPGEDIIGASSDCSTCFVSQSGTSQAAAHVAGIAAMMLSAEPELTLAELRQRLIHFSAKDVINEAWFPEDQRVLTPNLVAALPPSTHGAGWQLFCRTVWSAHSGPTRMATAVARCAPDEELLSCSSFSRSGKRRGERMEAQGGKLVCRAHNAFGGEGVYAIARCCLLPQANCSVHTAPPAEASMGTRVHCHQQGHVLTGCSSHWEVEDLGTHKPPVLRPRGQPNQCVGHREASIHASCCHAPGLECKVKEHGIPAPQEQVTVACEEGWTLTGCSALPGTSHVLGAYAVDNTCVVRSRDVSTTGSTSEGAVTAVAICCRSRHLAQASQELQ
run_description: SPR (Biacore T200), PCSK9 amine-coupled on chip, peptide at 50 µM
Non-standard residues stand in square brackets, D forms with d. No end group written: not given here. Hyp = O=C(O)[C@@H]1C[C@@H](O)CN1; NMeI = CC[C@H](C)[C@H](NC)C(=O)O; hArg = N=C(N)NCCCC[C@H](N)C(=O)O; Nle = CCCC[C@H](N)C(=O)O; APPA = not defined here; Aib = CC(C)(N)C(=O)O
quantity_name: Binding - Response Unit (RU)

SIP[APPA]NLERITPC (reading uncertain) [Short chain peptide Seq. ID. No. 18 (SIP-APPA-NLERITPC)]: 10.2
S[NMeI]IPWNLERITPC [Short chain peptide Seq. ID. No. 15 (S-(N-Me-Ile)-…)]: 11.4
SIP[Bip(OMe)]NLERITPC [Short chain peptide Seq. ID. No. 19 (SIP-Bip(OMe)-NLERITPC)]: 35.1
SIPWNLER[Nle]TPC [Short chain peptide Seq. ID. No. 4 (SIPWNLER-Nle-TPC)]: 13.1
SI[Hyp]WNLERITPC [Short chain peptide Seq. ID. No. 8 (SI-Hyp-…)]: 5.7

1 = SIPWNLE[hArg]ITPC [Short chain peptide Seq. ID. No. 6 (SIPWNLE-Har-ITPC)]
2 = SIPWNLER[Aib]TPC [Short chain peptide Seq. ID. No. 5 (SIPWNLER-Aib-TPC)]
3 = SIPWNLERI[Aib]PC [Short chain peptide Seq. ID. No. 13 (…-Aib-PC)]
Please put the entries in order of rising Binding - Response Unit (RU). // respond by listing labels in the order requested
2, 1, 3
(2: 2.3 RU, 1: 6.55 RU, 3: 9.75 RU)
